Consider the following compounds and their measured pIC50 readings.
- target.of.assay: C5aR (Homo sapiens (Human), UniProt P21730)
- Sequence (P21730 whole entry): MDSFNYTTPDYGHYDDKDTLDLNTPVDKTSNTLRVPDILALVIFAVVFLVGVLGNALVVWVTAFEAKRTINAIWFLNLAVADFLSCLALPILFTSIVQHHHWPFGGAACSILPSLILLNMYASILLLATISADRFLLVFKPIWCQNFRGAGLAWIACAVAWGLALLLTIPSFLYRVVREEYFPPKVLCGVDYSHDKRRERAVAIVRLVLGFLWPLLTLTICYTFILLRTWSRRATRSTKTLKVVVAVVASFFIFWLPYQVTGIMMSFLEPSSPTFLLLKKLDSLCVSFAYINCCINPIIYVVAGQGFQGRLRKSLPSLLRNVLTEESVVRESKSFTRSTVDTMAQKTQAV
- protocol.details: Chemotaxis assay using U937 cells (C5aR mediated migration)
- Format: cell-based
- protocol.conditions: read-out: Mig IC50
pIC50: −log10 of the molar value.
reported.property: pIC50

>>> observed("CCc1cccc(CC)c1-n1nc2c(c1-c1cc(F)c(NC(N)=O)cc1F)CN(Cc1ccc(C(F)(F)F)cc1OC)CC2 [Example 1.058]")
"≥ 8.30"
>>> observed("CCc1cccc(CC)c1-n1nc2c(c1-c1ccc(NC(N)=O)c(F)c1)CN(C(CC)CC)CC2 [Example 1.219]")
"7.30 to 8.30"
>>> observed("CC(C)(c1ccccc1)N1CCc2nn(-c3ccccc3OCC(F)(F)F)c(-c3cc(F)c(NC(N)=O)cc3F)c2C1 [Example 1.136]")
"≥ 8.30"
>>> observed("Cc1cc(NC(N)=O)ccc1-c1c2c(nn1-c1c(C)cccc1C)CCN(c1ccccc1C(C)C)C2 [Example 1.463]")
"≥ 8.30"
>>> observed("Cc1cnc(N2CCc3nn(-c4c(C)cccc4OCC(C)C)c(-c4ccc(NC(N)=O)cc4)c3C2)c(C(F)(F)F)c1 [Example 1.296]")
"≥ 8.30"
>>> observed("COc1cccc(C)c1-n1nc2c(c1-c1ccc(NC(C)C)cc1)CN(c1ccccc1C(C)C)CC2 [Example 1.485]")
"6.30 to 7.30"
>>> observed("NC(=O)Nc1cc(F)c(-c2c3c(nn2-c2c(F)cccc2F)CCN(c2ncc(Cl)cc2Cl)C3)cc1F [Example 1.183]")
"7.30 to 8.30"
>>> observed("NC(=O)Nc1cc(F)c(-c2c3c(nn2-c2ccccc2OC(F)(F)F)CCN(c2ncc(Cl)cc2Cl)C3)cc1F [Example 1.167]")
"≥ 8.30"
>>> observed("Cc1cccc(OCC(C)C)c1-n1nc2c(c1-c1ccc(NC(N)=O)c(F)c1)CN(c1ncc(F)cc1F)CC2 [Example 1.249]")
"≥ 8.30"
